Please respond with reported logD for every item in the list.
test: Lipophilicity, logD of the compound at pH 7.4; settings: buffer, pH 7.4, logD
Starred links: 1 amine or outer side, 2 acyl side, 3 side chain; linkers in the order of their positions; H or OH if unused. Non-standard residues stand in square brackets, D forms with d. Residues, ends and D or L forms follow the SMILES beside them. Groups on a side chain read outwards from the residue. *: point of attachment. dAlaψ(CH2NBu)Nle = CCCC[C@@H](C(=O)[*:2])N(CCCC)C[C@@H](C)N[*:1]; X3 = C[C@H](CO[C@H](CC1CC2(CCC2)C1)[C@@H](C)C(=O)[*:2])N[*:1]; X1 = CCCCCC[C@@H](OC[C@@H](C)N[*:1])[C@@H](C)C(=O)[*:2]; Cyclobutyl(trans-3-NH2) = N[C@H]1C[C@H](*)C1; Gly(cHept) = N[C@H](C(=O)O)C1CCCCCC1; aThr = C[C@H](O)[C@H](N)C(=O)O; NMeL = CN[C@@H](CC(C)C)C(=O)O; Chg = N[C@H](C(=O)O)C1CCCCC1; NMeNva = CCC[C@H](NC)C(=O)O; X13 = N[C@H]1C[C@H](N*)C1; Dap = NC[C@H](N)C(=O)O; CO = O=C([*:1])[*:2]; NH(CH2)3NH2 = NCCCN*; X11 = NCCCC*

Solved cases below.
1. CCCCCC[C@H]1OC[C@@H](C)NC(=O)[C@H](CC(=O)NCCCN)NC(=O)[C@H](CN)NC(=O)[C@H](C2CCCCCC2)NC(=O)[C@H](CCC)N(C)C(=O)[C@@H]1C (cyclo(D(NH(CH2)3NH2)[X1][NMeNva][Gly(cHept)][Dap])) | 1.3
2. CC(C)C[C@H]1C(=O)N[C@@H](C2CCCCC2)C(=O)N[C@@H](CN)C(=O)N[C@@H]([C@H](C)O)C(=O)NCC(=O)O[C@H](CCCCCCC(C)(C)O)[C@@H](C)C(=O)N1C | 2.2
3. CCCC[C@H]1C(=O)N(C)[C@@H](CC(C)C)C(=O)N[C@@H](C2CCCCC2)C(=O)N[C@@H](CN)C(=O)N[C@@H]([C@H](C)O)C(=O)N[C@H](C)CN1CCCC (cyclo([Chg][Dap][aThr][dAlaψ(CH2NBu)Nle][NMeL])) | 3.4

# per-item lookup of logD; items listed below
1. CCC[C@H]1C(=O)N[C@@H](C2CCCCCC2)C(=O)N[C@@H](CN)C(=O)N[C@@H]([C@H](C)O)C(=O)NCC(=O)O[C@H](CC2CC3(CCC3)C2)[C@@H](C)C(=O)N1C
2. COC(C)(C)CCCCCC[C@H]1OC(=O)CNC(=O)[C@H]([C@H](C)O)NC(=O)[C@H](CN)NC(=O)[C@H](C2CCCCC2)NC(=O)[C@H](CC(C)C)N(C)C(=O)[C@@H]1C
3. CCC[C@H]1C(=O)N[C@@H](C2CCCCCC2)C(=O)N[C@@H](CN)C(=O)N[C@@H](CO[C@H]2C[C@H](N)C2)C(=O)N[C@H](C)CO[C@H](CC2CC3(CCC3)C2)[C@@H](C)C(=O)N1C (cyclo([Dap]S(Cyclobutyl(trans-3-NH2))[X3][NMeNva][Gly(cHept)]))
4. CCCCCC[C@H]1OC[C@@H](C)NC(=O)[C@H](CNC(=O)N[C@H]2C[C@H](N)C2)NC(=O)[C@H](CN)NC(=O)[C@H](C2CCCCCC2)NC(=O)[C@H](CCC)N(C)C(=O)[C@@H]1C (cyclo([Dap][Dap]([CO-X13])[X1][NMeNva][Gly(cHept)]))
5. CCCCCC[C@H]1OC[C@@H](C)NC(=O)[C@H](COCCCCN)NC(=O)[C@H](CN)NC(=O)[C@H](C2CCCCC2)NC(=O)[C@H](CC(C)C)N(C)C(=O)[C@@H]1C (cyclo([Chg][Dap]S(X11)[X1][NMeL]))
6. CCCCCC[C@H]1OC[C@@H](C)NC(=O)[C@H](CN(C)CCCN)NC(=O)[C@H](CN)NC(=O)[C@H](C2CCCCCC2)NC(=O)[C@H](CCC)N(C)C(=O)[C@@H]1C

[out]
[2.9, 2.8, 2.2, 1.5, 1.7, 1.8]
